# Tested on: SF-268 CNS
# TEST_PROTOCOL: NCI-60 one-dose screen, 48 h (100 = growth as untreated, 0 = no growth, -100 = all killed)
# TEST_PARAMETERS: 10 µM unless noted
This is part of a sample that, as a whole, favours compounds with a hit. Of some 83,000 tested, about 20% had one in any assay. The source made the active and inactive calls. Rule for the calls: active = growth percent below 10; inactive = the rest.
QUANTITY: growth

| COMPOUND | QUANTITY | RESULT |
| --- | --- | --- |
| CCn1c2ccccc2c2ccc(C(C)=O)cc21 | growth | 90.8% (inactive) |
| COc1ccc(Cn2cc3c(c2-c2ccccc2)CCc2cncnc2-3)cc1 | growth | 63.1% (inactive) |
| Cc1cc(C)n2nc(SCC(=O)Nc3sc4c(c3C(N)=O)CCC4)nc2n1 | growth | 113% (inactive) |
| c1ccc(N2CCN(c3nncc4ccccc34)CC2)nc1 | growth | 103% (inactive) |
| N=C(N)/N=C(\CCc1nc2ccccc2[nH]1)c1nc2ccccc2[nH]1 | growth | 112% (inactive) |
| N#CCCN(CCO)c1ccccc1 | growth | 111% (inactive) |
| NC(N)=NC(N)=NCCCc1ccccc1 | growth | 59.5% [100 µM] (inactive) |
| CC(c1ccccn1)C(C)(O)C(C)c1ccccn1 (configuration not stated) | growth | 100% (inactive) |
| CC12CCC3C(CCC4CC(=O)/C(=C\O)CC43C)C1CCC(=O)O2 (configuration not stated) | growth | 108% (inactive) |
| CCC1=C(c2ccc(OC)cc2)C(C)Oc2cc(OC(C)=O)ccc21 (configuration not stated) | growth | 86.9% (inactive) |
| Clc1ccc([C@@H]2C[C@@H]3Cc4cc(Br)c5ccccc5c4N2O3)c(Cl)c1 | growth | 85.8% (inactive) |
| C=C1CC[C@@H]2[C@](C)(COC(C)=O)[C@H](OC(C)=O)CC[C@@]2(C)[C@@H]1CC(Nc1ccc(S(=O)(=O)Nc2cc(C)on2)cc1)C1=CCOC1=O (some centres not stated) | growth | 67.3% (inactive) |
| COC(=O)CCC1=C(CC(=O)OC)C(C)=N/C1=C\c1[nH]c(-c2ccc[nH]2)cc1OC | growth | 44.8% (inactive) |
| O=C1OCCCCCCCCCC#Cc2ccccc21 | growth | 182% (inactive) |
| COc1ccc2c(c1)C(=O)/C(=C/c1ccc([N+](=O)[O-])s1)O2 | growth | -72.7% (active) |
| CC(C)(C)c1ccc(S(=O)(=O)O)s1 | growth | 102% (inactive) |
| COc1ccc(C(=O)Nc2nc(-c3ccc(Cl)cc3)cs2)cc1 | growth | 105% (inactive) |
| C[n+]1c2ccccc2c(NC2CCNCC2)c2[nH]c3ccccc3c21 | growth | -31% (active) |
| COc1cccc(C2C(C#N)=C(N)Oc3cc(OC)ccc32)c1 (configuration not stated) | growth | 18.3% (inactive) |
| O=C(Nc1cccc(C(F)(F)F)c1)Nc1ccc(OCc2nnc(-c3ccc(Cl)cc3)o2)c(F)c1 | growth | 83.3% (inactive) |
| NC(=O)N/N=C/c1ccc(Br)o1 | growth | 99.6% (inactive) |
| C[C@]12CC[C@@H]3c4ccc(O)cc4CC[C@H]3[C@@H]1CC[C@@H]2NS(=O)(=O)c1cccc(Br)c1 | growth | 59.7% (inactive) |
| Cc1cc2c(cc1C)Nc1sc(NC(=O)CN3CCN(C)CC3)nc1C(=O)N2 | growth | 103% (inactive) |
| CCOC(=O)c1c2c(c(C)n1Cc1ccc(OC)cc1)-c1nc(N)ncc1CC2 | growth | 110% (inactive) |
| COc1ccc(-c2nnc(COc3ccc(NC(=O)Nc4cc(C(F)(F)F)cc(C(F)(F)F)c4)cc3F)o2)cc1 | growth | 18.8% (inactive) |
| OC(c1cc(C(F)(F)F)nc2c(C(F)(F)F)cccc12)C1CCCCN1 (configuration not stated) | growth | 47.9% (inactive) |
| CCOC(=O)C1=NN(c2ccc(Cl)cc2)C2C3N(c4ccc(Cl)cc4)N=C(C(=O)OCC)N3c3ccccc3N12 (configuration not stated) | growth | 102% (inactive) |
| Nc1ccc(C2=Nc3cccc4cccc(c34)S2)cc1 | growth | 88.9% (inactive) |
| CCC1(c2ccccc2)Oc2ccccc2-n2c(C#N)c3ccccc3c2C1=O (configuration not stated) | growth | 101% (inactive) |
| COc1ccc(-c2c(N)noc2-c2cc(OC)c3c(c2)OCCO3)cc1 | growth | 26.8% (inactive) |
| Clc1ccc(-c2nc(-c3cccs3)no2)c(Cl)c1 | growth | 99.2% (inactive) |
| Cc1nn(-c2ccccc2)c2c1oc(=O)c1cc(Cl)ccc12 | growth | 90.6% (inactive) |

---

# Tested on: SNB-75 CNS
# TEST_PROTOCOL: NCI-60 one-dose screen, 48 h (100 = growth as untreated, 0 = no growth, -100 = all killed)
# TEST_PARAMETERS: 10 µM unless noted
The panel holds about 83,000 compounds, 20% with a hit somewhere; the sample as a whole holds those more often.

| COMPOUND | MEASUREMENT_TARGET | MEASUREMENT_UNITS | growth |
| --- | --- | --- | --- |
| COc1ccc(-c2cc(Cc3cccs3)c(=O)n(Cn3cncn3)n2)cc1 | SNB-75 CNS | % | 106 |
| N#Cc1c(N2CCOCC2)nc2sc3cc(Cl)ccc3n2c1=N | SNB-75 CNS | % | 63.7 |
| CCc1[nH]nc(-c2ccc(OC)cc2)c1-c1ccccc1OCCN(CC)CC | SNB-75 CNS | % | 60.4 |
| C=C1c2c(C)nn(-c3ccc(C#CCOC4OC(CO)C(O)C(O)C4O)cc3)c2N(C)C23C[C@H]1C1(C)c4c(C)nn(-c5ccc(C#CCOC6OC(CO)C(O)C(O)C6O)cc5)c4N(C)C(C)(C[C@H]12)C3 (some centres undefined) | SNB-75 CNS | % | 6.04 |
| COc1ccc(C(=O)C(C)Br)cc1OC (centres undefined) | SNB-75 CNS | % | 85.8 |
| Cc1cc(C(C)(C)c2cc(C)c(O)c(CN(C)C)c2)cc(CN(C)C)c1O | SNB-75 CNS | % | 90.1 |
| COC(=O)[C@]1(C(C)C)N[C@H](c2cn(-c3ccccc3)nc2-c2ccccc2)[C@@H]2C(=O)N(c3ccc(Cl)cc3)C(=O)[C@@H]21 | SNB-75 CNS | % | 86.1 |
| COc1ccc(CCN2CCCN3C2=Nc2ccccc2S3(=O)=O)cc1 | SNB-75 CNS | % | 16.2 |
| COc1ccc2c(c1)nc(N)c1c3cc(C)c(C)cc3cn21 | SNB-75 CNS | % | 92.8 |

---

Catalogue of growth values
# Tested on: NCI-H522 lung
# TEST_PROTOCOL: NCI-60 one-dose screen, 48 h (100 = growth as untreated, 0 = no growth, -100 = all killed)
# TEST_PARAMETERS: 10 µM unless noted
Compounds without any hit were thinned out: in the full panel of roughly 83,000, 20% have a hit.
QUANTITY: growth (%)

| COMPOUND | READOUT_NUMBER |
| --- | --- |
| CC[C@]1(O)CC2CN(CCc3c([nH]c4ccccc34)[C@@](C(=O)OC)(c3cc4c(cc3OC)N(C)[C@H]3[C@@](O)(C(=O)OC)[C@H](OC(C)=O)[C@]5(CC)C=CCN6CC[C@]43[C@@H]65)C2)C1 (stereo partly specified) | -17.9 |
| ClC1C2CC(c3ccccc32)C1Cl (stereo unspecified) | 100 |
| C[n+]1ccc(Nc2ccc(NC(=O)c3ccc(Nc4cc[n+](C)c5ccc(N)cc45)cc3)cc2)cc1 | 109 |
| COc1ccc(/C=N/NC(=O)c2ccc(S(C)(=O)=O)cc2)cc1OC | 84.4 |
| O=C1Nc2ccc(F)cc2/C1=C/c1nc(-c2ccc(F)cc2)n2ccccc12 | 108 |
| Nc1ncc(-c2cnn(C3CCNCC3)c2)cc1-c1nc2cc(Cl)ccc2o1 | -87.6 |

---

# Test system: OVCAR-4 ovarian
# TEST_PROTOCOL: NCI-60 one-dose screen, 48 h (100 = growth as untreated, 0 = no growth, -100 = all killed)
# TEST_PARAMETERS: 10 µM unless noted
The panel holds about 83,000 compounds, 20% with a hit somewhere; the sample as a whole holds those more often.
Listed here are compounds together with their documented growth.
QUANTITY: growth (%)

| COMPOUND | MEASUREMENT_TARGET | QUANTITY | READOUT_NUMBER |
| --- | --- | --- | --- |
| N#Cc1cccc(/C=C(/C(=O)c2ccccc2)c2ccccc2)c1 | OVCAR-4 ovarian | growth | 50.9 |
| O=C(C(=O)N1CCCCC1)c1ccc(OC2OC(CO)C(O)C(O)C2O)cc1 (stereo not given) | OVCAR-4 ovarian | growth | 108 |
| O=C(C=C=Nc1ccccc1)C(=O)N=C=Cc1ccccc1 | OVCAR-4 ovarian | growth | 50.6 |
| O=[N+]([O-])c1ccc(N/N=C/c2c(O)ccc3ccccc23)nc1 | OVCAR-4 ovarian | growth | 21.2 |
| CC(=O)c1cc(C(=O)c2ccc3c(c2)Sc2ccccc2N3)c2c(C)cc(C)cn12 | OVCAR-4 ovarian | growth | 39.8 |
